experiment: qHTS assay to identify small molecule antagonists of the estrogen receptor beta (ER-beta) signaling pathway - cell viability counter screen (AID 1259382); details: ER-beta-UAS-bla HEK293T viability, CellTiter-Glo luminescence, 16 h; series mostly up to 92.4 µM; also: nearly all actives have a fitted effect of over 55% in size
Results filed as inconclusive are left out. Active and inactive are the calls of the source. Calls follow the shape of the dose curve; as a rule, active = well fitted cell-killing curve with a large enough effect in the repeat runs; inconclusive = weak or mixed curves; inactive = flat fitted curve, though single readings scatter.
// classify into active, inactive

See these solved cases before continuing.
For CCc1cccc(CC)c1 , which call appears in the assay record?
inactive

For CCC1(C)C(=O)N(Cl)C(=O)N1Cl (stereo not drawn) , which call appears in the assay record?
inactive

For C=Cc1ccncc1 , which call appears in the assay record?
inactive

For O=[N+]([O-])c1ccc(CO)cc1 , which call appears in the assay record?
inactive

For Cc1cc(Br)ccc1NC(=O)CCl , which call appears in the assay record?
active

For Cc1ccc2n[nH]nc2c1 , which call appears in the assay record?
inactive

For O=C1c2ccccc2C(=O)c2c(Cl)cccc21 , which call appears in the assay record?
inactive

For Cn1c(=O)[nH]c2ncn(C)c2c1=O , which call appears in the assay record?
inactive

---
For CSc1nnc(C(C)(C)C)c(=O)[nH]1 , which call appears in the assay record?
inactive

For Cc1ccc2sc3cccc(C)c3c2c1 , which call appears in the assay record?
inactive

====

assay: A CellTox Green Cytotoxicity Assay to monitor cytotoxicity in HepG2 cells - 24 hour (AID 1224878); conditions: CellTox Green fluorescence; series mostly up to 76.8 µM; also: nearly all actives have a fitted effect of over 45% in size; as to Cytotoxicity: % is scaled to controls: 0 for no effect and ±100 for the full control effect
Results filed as inconclusive are left out. Active and inactive are the calls of the source. Calls come from the whole dose curve; as a rule, active = well fitted activation curve with a large enough effect in the repeat runs; inconclusive = weak or mixed curves; inactive = flat fitted curve, though single readings scatter.
// classify into active, inactive

For CC(c1cc(C(C)(C)C)cc(C(C)(C)C)c1O)c1cc(C(C)(C)C)cc(C(C)(C)C)c1O , which call appears in the assay record?
inactive

For CN(C[C@@H](CC[N+]12CCC(C3CCCCC3)(CC1)CC2)c1ccc(Cl)c(Cl)c1)C(=O)c1cc(C(F)(F)F)cc(C(F)(F)F)c1 , which call appears in the assay record?
active

For Cc1ccc(C=O)cc1 , which call appears in the assay record?
inactive

For c1ccc(-c2ccccc2-c2ccccc2)cc1 , which call appears in the assay record?
inactive

For CN1CCN(CCCN2c3ccccc3Sc3ccc(C(F)(F)F)cc32)CC1 , which call appears in the assay record?
active

For CSc1ccc(O)cc1C , which call appears in the assay record?
inactive

For CC(C)C(=O)C(C)C , which call appears in the assay record?
inactive

For O[Si](c1ccccc1)(c1ccccc1)c1ccccc1 , which call appears in the assay record?
inactive

---
For Cn1ccnc1 , which call appears in the assay record?
inactive

For CCn1c2ccccc2c2ccccc21 , which call appears in the assay record?
inactive

For CCOC(=O)OC(=O)OCC , which call appears in the assay record?
inactive

For SC1CCCCC1 , which call appears in the assay record?
inactive

For Cc1c(Cl)c(=O)oc2cc(O)ccc12 , which call appears in the assay record?
inactive

====

assay: A CellTox Green Cytotoxicity Assay to monitor cytotoxicity in HepG2 cells - 32 hour (AID 1224883); settings: CellTox Green fluorescence; series mostly up to 76.8 µM; also: nearly all actives have a fitted effect of over 50% in size
Results filed as inconclusive are left out. The source made the active and inactive calls. The call rests on the fitted dose curve; in most records, active means well fitted activation curve with a large enough effect in the repeat runs; inconclusive means weak or mixed curves; inactive means flat fitted curve, though single readings scatter.
// classify into yes (1) = active, no (0) = inactive

See these solved cases before continuing.
For CCCOC(=O)c1ccc(O)cc1 , which call appears in the assay record?
no (0)

For CCCCCCCCOC(=O)c1cc(O)c(O)c(O)c1 , which call appears in the assay record?
yes (1)

---
For C[C@H]1O[C@@H](O[C@H]2CC[C@@]3(C)[C@H](CC[C@@H]4[C@@H]3C[C@@H](O)[C@]3(C)[C@@H](C5=CC(=O)OC5)CC[C@]43O)C2)C[C@H](O)[C@@H]1O[C@H]1C[C@H](O)[C@H](O[C@H]2C[C@H](O)[C@H](O[C@@H]3O[C@H](CO)[C@@H](O)[C@H](O)[C@H]3O)[C@@H](C)O2)[C@@H](C)O1 , which call appears in the assay record?
no (0)

====

Biological target: Vitamin D3 receptor (Homo sapiens) (UniProt P11473)
Sequence (P11473 whole entry, looked up): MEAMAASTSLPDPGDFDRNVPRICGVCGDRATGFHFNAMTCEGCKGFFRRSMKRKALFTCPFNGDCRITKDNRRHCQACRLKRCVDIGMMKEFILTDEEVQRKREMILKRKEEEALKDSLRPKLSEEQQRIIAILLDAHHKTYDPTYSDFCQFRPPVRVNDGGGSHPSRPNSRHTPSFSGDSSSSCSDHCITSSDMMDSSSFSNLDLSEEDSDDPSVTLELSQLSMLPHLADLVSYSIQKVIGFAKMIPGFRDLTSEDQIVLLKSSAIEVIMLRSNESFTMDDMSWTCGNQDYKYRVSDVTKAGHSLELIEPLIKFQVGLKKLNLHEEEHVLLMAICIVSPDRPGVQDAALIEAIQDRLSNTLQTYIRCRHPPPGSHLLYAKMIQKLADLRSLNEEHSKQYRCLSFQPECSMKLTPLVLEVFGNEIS
Assay: qHTS assay to identify small molecule antagonists of the vitamin D receptor (VDR) signaling pathway (AID 743223)
Settings: VDR-UAS-bla HEK293T, beta-lactamase FRET ratio, 16 h; series mostly up to 61 µM
Excerpt: U.S. Tox21 Program National Center for Advancing Translational Sciences [NCATS] NIH Chemical Genomics Center [NCGC] U.S. Environmental Protection Agency [EPA] National Institutes of Environmental Health Sciences [NIEHS] National Toxicology Program [NTP] U.S. Food and Drug Administration [FDA] Tox21 Assay Overview: The vitamin D receptor (VDR), a member of nuclear hormone receptor superfamily, plays a critical role in calcium homeostasis and bone metabolism. […]
Records with an inconclusive call do not appear. Calls of active or inactive are those of the source. The call rests on the fitted dose curve; in most records, active means well fitted inhibition curve with a large enough effect in the signal ratio in the repeat runs (not every such curve was filed as active); inconclusive means weak or mixed curves, or effect the other way; inactive means no such curve, though single readings can be large or run the other way; the % refers to the signal ratio.
// classify into True (active), False (inactive)

For N#Cc1nc(Cl)c(Cl)c(Cl)c1Cl , which call appears in the assay record?
True

For O=C1CCCCCCCCCCCCCC1 , which call appears in the assay record?
False

For CCCCCCCC/C=C\CCCCCCCC(=O)N(CCO)CCO , which call appears in the assay record?
False

For O=C1CCC/C=C\CCCCCCCCCC1 , which call appears in the assay record?
False

For CCCCCCCCOC(=O)c1cc(O)c(O)c(O)c1 , which call appears in the assay record?
True

For S=C1NC=NC2N=CNC12 (configuration not stated) , which call appears in the assay record?
False

Next molecule, please.
For CCC(C)(C)c1ccc(CC(C)CN2C[C@@H](C)O[C@@H](C)C2)cc1 (some centres not stated) , which call appears in the assay record?
False

====

assay: Caspase-3/7 induction in HepG2 cells by small molecules, qHTS cell viability counter screen (AID 1346981); settings: CellTiter-Fluor fluorescence, 17 h; series mostly up to 92.4 µM; also: nearly all actives have a fitted effect of over 30% in size
Inconclusive results are not listed. Calls of active or inactive are those of the source. Calls follow the shape of the dose curve; as a rule, active = well fitted cell-killing curve with a large enough effect in the repeat runs; inconclusive = weak or mixed curves, or effect the other way; inactive = flat fitted curve, though single readings scatter.
// classify into t (active), f (inactive)

See these solved cases before continuing.
For CC(c1cc(C(C)(C)C)cc(C(C)(C)C)c1O)c1cc(C(C)(C)C)cc(C(C)(C)C)c1O , which call appears in the assay record?
f

For CCOC(=O)[C@H](C)O , which call appears in the assay record?
f

---
For Nc1ccc(Oc2cccc(Oc3ccc(N)cc3)c2)cc1 , which call appears in the assay record?
f

For C=COCCCC , which call appears in the assay record?
f

For C=C(C)CCO , which call appears in the assay record?
f

For NC(=O)c1ccccc1Cl , which call appears in the assay record?
f

For CC/C(=C(/c1ccc(O)cc1)c1ccc(OCCN(C)C)cc1)c1ccccc1 , which call appears in the assay record?
t

====

assay: qHTS assay to identify small molecule antagonists of the estrogen receptor alpha (ER-alpha) signaling pathway using the BG1 cell line - cell viability counter screen (AID 743081); settings: BG1Luc4E2 viability, CellTiter-Fluor, 22 h; series mostly up to 70.3 µM;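 also: compound given together with 17beta-estradiol as the ER stimulus; nearly all actives have a fitted effect of over 45% in size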
Records with an inconclusive call do not appear. Active and inactive are the calls of the source. Calls come from the whole dose curve; as a rule, active = well fitted cell-killing curve with a large enough effect in the repeat runs; inconclusive = weak or mixed curves, or effect the other way; inactive = flat fitted curve, though single readings scatter.
// classify into YES (active), NO (inactive)

For CC(C)C[C@@H](NC(=O)[C@@H](O)[C@H](N)Cc1ccccc1)C(=O)O , which call appears in the assay record?
YES

---
For CNC(=O)OCc1cccc(COC(=O)NC)n1 , which call appears in the assay record?
NO

For CC(=O)NC[C@H]1CN(c2ccc(N3CCOCC3)c(F)c2)C(=O)O1 , which call appears in the assay record?
NO

For CO/N=C(\C(=O)N[C@@H]1C(=O)N2C(C(=O)O)=C(CSc3cnns3)CS[C@H]12)c1csc(N)n1 , which call appears in the assay record?
NO

For c1ccc2cc3c4ccccc4c4ccccc4c3cc2c1 , which call appears in the assay record?
NO

====

test: qHTS assay to identify small molecule antagonists of the androgen receptor (AR) signaling pathway using the MDA cell line in the presence of 0.5 nM R1881 - cell viability counter screen (AID 1259242); details: MDA-kb2 viability, CellTiter-Fluor protease fluorescence, 16 h; series mostly up to 92.4 µM; also: nearly all actives have a fitted effect of over 45% in size
Records with an inconclusive call do not appear. Activity calls are given as the source filed them. Calls follow the shape of the dose curve; as a rule, active = well fitted cell-killing curve with a large enough effect in the repeat runs; inconclusive = weak or mixed curves, or effect the other way; inactive = flat fitted curve, though single readings scatter.
// classify into YES (active), NO (inactive)

See these solved cases before continuing.
For c1ccc(-c2nc3ccccc3[nH]2)cc1 , which call appears in the assay record?
NO

For CCc1cccc(CC)c1 , which call appears in the assay record?
NO

For Nc1ccc(F)c([N+](=O)[O-])c1 , which call appears in the assay record?
NO

For CCn1c2ccccc2c2ccccc21 , which call appears in the assay record?
NO

For C/C(=N\[Si](C)(C)C)O[Si](C)(C)C , which call appears in the assay record?
NO

For CCC1(C)C(=O)N(Cl)C(=O)N1Cl (configuration not stated) , which call appears in the assay record?
NO

Next molecule, please.
For CC/C(=C(/c1ccc(O)cc1)c1ccc(OCCN(C)C)cc1)c1ccccc1 , which call appears in the assay record?
YES
